# experimental.system: AlDHPyr1147 (Pyrobaculum ferrireducens, UniProt G7VCG0)
# Sequence (G7VCG0 1-491): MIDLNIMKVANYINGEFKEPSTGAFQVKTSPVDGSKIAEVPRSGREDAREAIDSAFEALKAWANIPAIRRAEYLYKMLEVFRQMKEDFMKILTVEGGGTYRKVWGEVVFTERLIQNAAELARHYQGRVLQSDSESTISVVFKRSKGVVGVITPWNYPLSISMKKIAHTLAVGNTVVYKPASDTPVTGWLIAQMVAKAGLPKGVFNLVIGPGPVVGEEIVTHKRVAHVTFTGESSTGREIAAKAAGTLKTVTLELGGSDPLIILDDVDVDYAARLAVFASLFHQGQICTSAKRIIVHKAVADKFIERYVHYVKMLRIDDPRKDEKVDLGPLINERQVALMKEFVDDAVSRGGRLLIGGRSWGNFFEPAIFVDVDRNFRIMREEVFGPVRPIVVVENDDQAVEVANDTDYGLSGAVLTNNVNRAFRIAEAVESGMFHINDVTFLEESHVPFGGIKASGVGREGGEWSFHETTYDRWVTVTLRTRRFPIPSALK

| mol | Kd [µM] |
| --- | --- |
| NC(=O)c1ccc[n+]([C@@H]2O[C@H](COP(=O)(O)OP(=O)(O)OC[C@H]3O[C@@H](n4cnc5c(N)ncnc54)[C@H](OP(=O)(O)O)[C@@H]3O)[C@@H](O)[C@H]2O)c1 | 0.6 |
